# Test system: MS2 coat protein
# Experimental Protocol: apparent KD of MS2 coat protein; designed switch direction (-1 OFF switch, 1 ON switch): 1; higher = weaker reporter binding
# Measurement Setup: input ligand: FMN 200 uM
apparent KD of MS2 coat protein values for the sequences below.
Measured Property: apparent KD of MS2 coat protein (nM)

[[record]]
sequence_content = "UGGCUCAGACGAGGAUAUGAUCAUGGCGCUUCGGCGCAUACAUGAGGAUCACCCAUGUAAAGUGAUCAGAAGGUGUCUGAGCCA [SSNG2/7-B2] (Eterna round: R96, puzzle: Same State NG 2)"
subject_of_test = "MS2 coat protein"
measured_property = "apparent KD of MS2 coat protein"
value_reported = 13

[[record]]
sequence_content = "AAUUUCUAGAGAGGAUAUGCAGAGGAUCACCCUGCAGAAGGCUCGAGAGAGAGGAUAUGCAGAGGAUCACCCUGCAGAAGGCUC [pwkr ssNG DX.29] (Eterna round: R96, puzzle: Same State NG 1)"
subject_of_test = "MS2 coat protein"
measured_property = "apparent KD of MS2 coat protein"
value_reported = 14.5

[[record]]
sequence_content = "AAAAAACAUGAGGAUCACCCAUGUAAAAAUAUGGGAGGAUAUUCAAACACGAAAGUGAAAGAAGAAGGCCUAAAAA [SS! MT 18] (Eterna round: R96, puzzle: Same State 1)"
subject_of_test = "MS2 coat protein"
measured_property = "apparent KD of MS2 coat protein"
value_reported = 17.5

[[record]]
sequence_content = "UGUUGUUAACUAGGAUAUGGUCACAUGAGGAUCACCCAUGUAAUGUCGAUGCUAUGUGGAUUUGAUCAGAAGGAGUGGUUAACA [SameState NG2 #99] (Eterna round: R96, puzzle: Same State NG 2)"
subject_of_test = "MS2 coat protein"
measured_property = "apparent KD of MS2 coat protein"
value_reported = 66.4

[[record]]
sequence_content = "GACUCUAGAGGAGGAUAUGCAGAGGAUCACCCUGUAGAAGGCCUCAUAAGGAGGAUAUGCAGAGGAUCACCCUGUAGAAGGCCU [pwkr ssNG DX.20] (Eterna round: R96, puzzle: Same State NG 1)"
subject_of_test = "MS2 coat protein"
measured_property = "apparent KD of MS2 coat protein"
value_reported = 170


====

Reported apparent KD of MS2 coat protein is given for each of the following sequences.
# Test system: MS2 coat protein
# Experimental Protocol: apparent KD of MS2 coat protein, switch ON state; designed switch direction (-1 OFF switch, 1 ON switch): -1; higher = weaker reporter binding
# Measurement Setup: FMN input: 0 or 200 uM; Eterna round: R93 (includes R88 designs)
Measured Property: apparent KD of MS2 coat protein (nM)

[[record]]
sequence_content = "AACAGUACAGGAUAUACAUGAGGAUCACCCAUGUGAGAGAAAUAAAACAAAAAUAAAAGUAGAAGGGUACUGAA [Mat - Exclusion 3 - Eli mod - D67]"
measured_property = "apparent KD of MS2 coat protein"
value_reported = 31.8

[[record]]
sequence_content = "GGAAAGUGAGGAUAUGCAUAACAAACACAAACACAAACAAAGCAGAAGGCACAUGAGGAUCACCCAUGUAAACA [Exclusion 4 Willow]"
measured_property = "apparent KD of MS2 coat protein"
value_reported = 23.5

[[record]]
sequence_content = "GAAAGGUCAGGAUAUACGUUAUGCUAGUGCUCGUACUAUAAGUAGAAGGGACAUGAGGAUCACCCAUGUGAUAA [Kawasakiqro]"
measured_property = "apparent KD of MS2 coat protein"
value_reported = 45.2

[[record]]
sequence_content = "AUCGAUCGAGGAUAUACAUGAGGAUCACCCAUGUAAAAAAAAAAAAAGGCCUCAGGACGUAGAAGGCGACGCAA [JR_Exc003_Sub402]"
measured_property = "apparent KD of MS2 coat protein"
value_reported = 16.3

[[record]]
sequence_content = "AGGAAACAUGAGGAUCACCCAUGUGAGGAUAUUUGAAAGAAAAGAAAAGAAAGAAGAAGAAGAAGGCACAAGAA [Merneith]"
measured_property = "apparent KD of MS2 coat protein"
value_reported = 17.6

[[record]]
sequence_content = "AAAUGACAUGAGGAUCACCCAUGUCAGGAUAUGACUUGAAAAAAAAAAAAAAAACAUGUCAGAAGGGACAUGGA [Design 51: Sub-opt G]"
measured_property = "apparent KD of MS2 coat protein"
value_reported = 22.8

[[record]]
sequence_content = "AAGAAGUCAGGAUAUGCUGCUCGUCACUUGCGUGAUGAGUAGCAGAAGGGACAUGAGGAUCACCCAUGUGGAAA [Modifying Chris (69%) Late G segment 2]"
measured_property = "apparent KD of MS2 coat protein"
value_reported = 123

[[record]]
sequence_content = "AGUCCAGAAGGAUAUACAUAGGUGAAAAAAAAAAAAAAACUACAUGAGGAUCACCCAUGUAGAAGGUCUGGACA [Mod of Brourd]"
measured_property = "apparent KD of MS2 coat protein"
value_reported = 58.6

[[record]]
sequence_content = "UCCGGACAUGAGGAUCACCCAUGUGAGGAUAUAUAACGUGGGACUGGAAACAAUCCCAAUAGAAGGCACAUGAC [Reisatridi]"
measured_property = "apparent KD of MS2 coat protein"
value_reported = 21.5

[[record]]
sequence_content = "AAAGGAUCAGGAUAUGUGUGGAAAAAGUGUGUCCCAAAAAAACAUGAGGAUCACCCAUGUAGAAGGGAUCCAAA [Mod 5 of Normal (20/19) by Nando, Round 1]"
measured_property = "apparent KD of MS2 coat protein"
value_reported = 44.9

[[record]]
sequence_content = "AGUUGGCGAGGAUAUACAUGAGGAUCACCCAUGUGAGAGAAAAAAGUGAGAAAGAAAUGUAGAAGGCGCUCACA [JL Lego Mod 13]"
measured_property = "apparent KD of MS2 coat protein"
value_reported = 62.8

[[record]]
sequence_content = "AGCUAGUCAGGAUAUACGCAAACGAACGAAGCUGAGAAGGGACAUGAGGAUCACCCAUGUAGAAGGGACUAGCA [Diamond 32]"
measured_property = "apparent KD of MS2 coat protein"
value_reported = 25.3

[[record]]
sequence_content = "AACAGGUGAGGAUAUCUGGAUAGGAAAAAGAAAACCUAUCCAGAGAAGGCACAUGAGGAUCACCCAUGUAAAAA [JL cataway mod 8]"
measured_property = "apparent KD of MS2 coat protein"
value_reported = 78.5

[[record]]
sequence_content = "AAAAAGAGAGGAUAUACAUGAGGAUCACCCAUGUAAAAAAGAAGAAAGAAAAAAAAAUGUAGAAGGCUCAAAAA ['Exclusion 3']"
measured_property = "apparent KD of MS2 coat protein"
value_reported = 35.9

[[record]]
sequence_content = "AAACCACAUGAGGAUCACCCAUGUCAGGAUAUGAACGAAAUAAAAUAAAAAUAAAAGUUCAGAAGGGACGAAAA [Mat - Exclusion 1 - Eli mod - D17]"
measured_property = "apparent KD of MS2 coat protein"
value_reported = 27.3

[[record]]
sequence_content = "AAGUAUAGAGGAUAUACAUAGAUACAGAUUCAUGUAGAACUACAUGAGGAUCACCCAUGUAGAAGGCUAUAAUA [AJ 34]"
measured_property = "apparent KD of MS2 coat protein"
value_reported = 19.4

[[record]]
sequence_content = "UAUGAGCGAGGAUAUGCUUGGGACUGUCGGAAGGUGGCGGGACAUGAGGAUCACCCAUGUAGAAGGCGCGAGCG [Harteesian Tree]"
measured_property = "apparent KD of MS2 coat protein"
value_reported = 59.8

[[record]]
sequence_content = "AAAAAACAUGAGGAUCACCCAUGUCAGGAUAUGCUAUGGAAAAUAAAAAUAAAACAUAGCAGAAGGGACACCAA [64%, Meechl, 2]"
measured_property = "apparent KD of MS2 coat protein"
value_reported = 32.8

[[record]]
sequence_content = "AAAGGACGAGGAUAUACAUGAGGAUCACCCAUGUAAAAAACAUAACAAAAGAACUUAUGUAGAAGGCGUCCAAA [69%, Moding Meechl, 2]"
measured_property = "apparent KD of MS2 coat protein"
value_reported = 54.4

[[record]]
sequence_content = "UACAGACAUGAGGAUCACCCAUGUGAGGAUAUUCAUAACGAUAUUACAAGUAUGACAGGAAGAAGGCACAGCAA [JR_Exc001_Sub010]"
measured_property = "apparent KD of MS2 coat protein"
value_reported = 45

[[record]]
sequence_content = "AAGCUGGUAGGAUAUACUAGGGCAACUAAUGCACCGAGAGGACAUGAGGAUCACCCAUGUAGAAGGGCCAGAAA [Mat - Exclusion 2 - JL mod - D63]"
measured_property = "apparent KD of MS2 coat protein"
value_reported = 114

[[record]]
sequence_content = "AAAACUGGAGGAUAUACGAACAUGUCAAAAGACGUGAAGGGACAUGAGGAUCACCCAUGUAGAAGGCUAGAAAA [JL Stem Breaker 10]"
measured_property = "apparent KD of MS2 coat protein"
value_reported = 52.3

[[record]]
sequence_content = "AAGAAACAUGAGGAUCACCCAUGUCAGGAUAUGAAAAAGAAAAGAAAAGAAAGAAGAAUCAGAAGGGACAAAGG [Neferkauhor Khuwihapi]"
measured_property = "apparent KD of MS2 coat protein"
value_reported = 74.1

[[record]]
sequence_content = "AACAGGACAGGAUAUACAUGAGGAUCACCCAUGUAGGAAACAAGCAGAGUACCAAACAGUAGAAGGGUCAUGGA [Ruby 29]"
measured_property = "apparent KD of MS2 coat protein"
value_reported = 31.3

[[record]]
sequence_content = "AAACCACAUGAGGAUCACCCAUGUAAGGAUAUGAACGAAAUAAAAUAAAAAUAAAAGUUCAGAAGGUACAAAAA [Mat - Exclusion 1 - Eli mod - D22]"
measured_property = "apparent KD of MS2 coat protein"
value_reported = 22.6


Data provenance: the supplement of paper PMC9170038
